tested on: TYKNU; assay: fractional viability relative to vehicle; higher = less growth inhibition; details: 10uM; 72 h; genotype: sgCTRLA1 (non-targeting control)
Whole data set: some 2,000 compounds, median “fractional viability relative to vehicle” near 0.91, cut for the lowest 2% near 0.045. The sample as a whole holds a higher share of the lowest values than the screen did.
Cut-off 1 on fractional viability: below means criterion met, at or above means criterion not met.

Known results for compounds:
compound	category
Cc1ccc(-n2nccn2)c(C(=O)N2CCN(c3nc4cc(Cl)ccc4o3)CC[C@H]2C)c1	criterion not met
Cc1sc2c(c1C)C(c1ccc(Cl)cc1)=N[C@@H](CC(N)=O)c1nnc(C)n1-2	criterion met

For the next question, use this compound.
## Input Consider O=C(O[C@H]1C[C@H]2CC[C@@H](C1)[N+]21CCCC1)C(O)(c1ccccc1)c1ccccc1 [Trospium chloride] . Does its fractional viability lie strictly below 1?
## Output criterion not met

* * *

test system: TYKNU; experiment: fractional viability relative to vehicle; higher = less growth inhibition; conditions: 10uM; 72 h; genotype: sgCTRLA1 (non-targeting control)
Counter-ions that a name gives are not always drawn. The full ranking holds about 2,000 compounds; the median of “fractional viability relative to vehicle” is about 0.91, and the lowest 2% start at about 0.045. The entries come from a sample that favours the lowest values as a whole.
Known fractional viability of a selection of compounds
Just the number, please.

Here's what some known entries look like.
compound	fractional viability
O=C(NCC1CCOCC1)c1cnc(Nc2ccc(Cl)cc2Cl)nc1C(F)(F)F	1.19
Cc1cccc(C(C)c2c[nH]cn2)c1C (stereo not drawn) [Medetomidine HCl]	1.03
C[C@@H]1O[C@@H](O[C@H]2C[C@@H](O)[C@]3(CO)[C@H]4[C@H](O)C[C@]5(C)[C@@H](C6=CC(=O)OC6)CC[C@]5(O)[C@@H]4CC[C@]3(O)C2)[C@H](O)[C@H](O)[C@H]1O [Ouabain]	0.0311
CC(=O)Nc1ccc(Cc2ccc(NC(C)=O)cc2)cc1	0.791
CC1=C(O)C(=O)C=C2C1=CC=C1[C@@]2(C)CC[C@@]2(C)[C@@H]3C[C@](C)(C(=O)O)CC[C@]3(C)CC[C@]12C [Celastrol]	0.0139

## Input Return reported fractional viability. Input compound: O=C1CCC[C@@H]2[C@H]3CCCN4CCC[C@@H](CN12)[C@@H]34 [(+)-Matrine]
## Output 1

## Input Return reported fractional viability. Input compound: CN(C)Cc1c[nH]c2ccccc12 [Gramine]
## Output 0.971

## Input Return reported fractional viability. Input compound: "c1ccc([C@@H]2C[C@H]2NC2CCNCC2)cc1"
## Output 0.824

* * *

system: TYKNU; assay: fractional viability relative to vehicle; TYKNU is a high-grade serous ovarian cancer line; higher = less growth inhibition; conditions: 10uM; 72 h; genotype: DNM1L knockout (sgDNM1L #1)
Over roughly 2,000 compounds, “fractional viability relative to vehicle” has its median near 0.91; the lowest 2% begin near 0.045. This excerpt belongs to a sample that is enriched for the lowest values.
Cut-off 0.2 on fractional viability: below means Y, at or above means N.

Known results for compounds:
compound	measured on	category
Cc1cc(C(C#N)c2ccc(Cl)cc2)c(Cl)cc1NC(=O)c1cc(I)cc(I)c1O (stereo not given) [Closantel]	TYKNU	N
CCN1CCN(C(=O)Cc2ccc(Nc3ncc(F)c(Nc4ccc(C(=O)Nc5ccccc5Cl)cc4)n3)cc2)CC1	TYKNU	Y
CC(C)(C)c1cc(C=C(C#N)C#N)cc(Br)c1O	TYKNU	N
Cn1c(COP(=O)(NCCBr)NCCBr)cnc1[N+](=O)[O-]	TYKNU	N
O=S(=O)(CC1CS1)c1ccc(Oc2ccccc2)cc1 (stereo not given)	TYKNU	Y

## Input Consider Cc1cc(C(C#N)c2ccc(Cl)cc2)c(Cl)cc1NC(=O)c1cc(I)cc(I)c1O (stereo not given) [Closantel Sodium] . Does its fractional viability lie strictly below 0.2?
## Output N

## Input Consider "CN[C@@H]1C[C@H]2O[C@@](C)([C@@H]1OC)n1c3ccccc3c3c4c(c5c6ccccc6n2c5c31)C(=O)NC4" . Does its fractional viability lie strictly below 0.2?
## Output Y

## Input Consider "COc1cc([C@@H]2c3cc4c(cc3[C@H](O)[C@H]3COC(=O)[C@@H]23)OCO4)cc(OC)c1OC" . Does its fractional viability lie strictly below 0.2?
## Output Y

## Input Consider "O=c1[nH]c2ccc(Cl)cc2c(N[C@@H]2CN3CCC2CC3)c1-c1nc2ccccc2[nH]1" . Does its fractional viability lie strictly below 0.2?
## Output Y

## Input Consider "O=[N+]([O-])/C=C/c1ccc2c(c1)OCO2" . Does its fractional viability lie strictly below 0.2?
## Output Y
